Molecular target: SARS-COV-2 RBD extracellular domain expressed with a C-terminal mouse IgG2a Fc (SARS-CoV-2)
Experiment: Biacore SPR, mAb captured on anti-hFc, 25 C
Assay readout: t½ (h)
Form entry: value (h) — number only.

Use the examples below as a reference point.
Binder: mAb14286 (antibody, V domains shown) VH: QVQLVQSGAEVKKPGASVKVSCKASGYTFTDYFIHWVRQAPGQGLEWMGWINPTSGGTNYAQKFRGRVTMTRDTSISTAYVELSRLRSDDTALYYCARDLPFYSDTKQFDYWGQGTLVTVSS VL: QSALTQPASVSGYPGQSITISCTGTSSDVGGYNYVSWYQQHPGKAPKLMIFDVSNRPSGVSNRFSGSKSGNTASLTFSGLQAEDEADYYCSSYTSSSTLVFGGGTKLTVLG
t½ [h]: 0.293
//
Binder: mAb15160 (antibody, V domains shown) VH: EVQLVESGGGLVQPGGSLRLSCSASGFTFSRYAMYWVRQAPGKGLEYVSAISSDGGSTYDADSVKGRFTISRANSKNTLYLQMSSLRAEDTAVYYCVKGLRELLYYYYGMDVWGQGTTVTVSS VL: DIQMTQSPSSLSASVGDRVTITCRAGQSISSFLNWYQQKPGKAPKLLIYAASSLQSGVPSRFSGSGSGTDFTLTISSLQPEDFATYYCQQSYITPFTFGPGTKVDIKR
t½ [h]: 18.4

Shifting focus to the binder that follows.
In: So what's the measured t½ for this one? mAb14247 (antibody, V domains shown) VH: QITLKESGPTLVKPTQTLTLTCTFSGFSLSTSAVGVGWIRQPPGKALEWLALIYWDDDKRYSPSLKSRLTITKDTSKNQLVLTMTNVDPVDTATYYCAHHTIQLIFDYWGQGTLVTVSS VL: QSALTQPASVSGSPGQSITISCTATSSDVGNYNYVSWYQQHPGKAPKLMIYEVSNRPSGVSNRFSGSKSGNTASLTISGLQAEDEADYYCSSYTSSSTPLVFGGGTKLTVLG
Out: 1.23
